# credit: ChEMBL document CHEMBL2429769

Biological target: Aromatase (Homo sapiens, UniProt P11511)
Sequence (P11511 whole entry): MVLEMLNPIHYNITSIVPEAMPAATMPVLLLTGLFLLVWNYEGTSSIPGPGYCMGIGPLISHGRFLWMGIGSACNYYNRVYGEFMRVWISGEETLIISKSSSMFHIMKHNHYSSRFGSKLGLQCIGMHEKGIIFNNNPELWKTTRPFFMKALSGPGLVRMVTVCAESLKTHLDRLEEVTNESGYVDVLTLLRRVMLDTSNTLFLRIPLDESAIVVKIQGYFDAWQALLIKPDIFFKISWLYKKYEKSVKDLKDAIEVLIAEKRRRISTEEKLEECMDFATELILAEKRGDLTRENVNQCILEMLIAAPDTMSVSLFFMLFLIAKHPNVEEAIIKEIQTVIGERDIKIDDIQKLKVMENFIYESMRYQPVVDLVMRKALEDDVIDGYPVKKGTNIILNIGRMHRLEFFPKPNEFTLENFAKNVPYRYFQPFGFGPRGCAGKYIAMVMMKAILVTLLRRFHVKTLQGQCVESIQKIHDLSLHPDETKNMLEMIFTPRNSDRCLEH
The label fulfilled is reserved for IC50 strictly under 50 µM; not fulfilled covers values equal to or above it.

{"columns": ["Compound", "Tested on", "Classification"],
 "data": [
  ["C[C@]12CC[C@H]3[C@@H](CCC4=C(O)C(=O)CC[C@@]43C)[C@@H]1CC[C@@H]2O", "Aromatase (Homo sapiens, UniProt P11511)", "fulfilled"],
  ["C[C@]12C[C@@H](O)[C@H]3[C@@H](CCC4=C(O)C(=O)CC[C@@]43C)[C@@H]1CC[C@@H]2O", "Aromatase (Homo sapiens, UniProt P11511)", "fulfilled"],
  ["C[C@]12CCC(=O)C(O)=C1CC[C@@H]1[C@@H]2CC[C@]2(C)C(=O)CC[C@@H]12 [FORMESTANE]", "Aromatase (Homo sapiens, UniProt P11511)", "not fulfilled"],
  ["C[C@]12CC[C@H]3[C@@H](CC[C@@]4(O)[C@@H](O)C(=O)CC[C@]34C)[C@@H]1CCC2=O", "Aromatase (Homo sapiens, UniProt P11511)", "fulfilled"]
]}

Next compound, please.
Lab note: IC50 threshold 50 µM. Does this compound come in strictly under it? C[C@]12CC[C@@H](O)C(=O)[C@H]1CC[C@@H]1[C@@H]2CC[C@]2(C)[C@@H](O)CC[C@@H]12
fulfilled
